Target: human recombinant HDAC6 (Homo sapiens, UniProt Q9UBN7)
Construct: purchased Calibiochem Co. (so in the source) 382180
Sequence (Q9UBN7 whole entry): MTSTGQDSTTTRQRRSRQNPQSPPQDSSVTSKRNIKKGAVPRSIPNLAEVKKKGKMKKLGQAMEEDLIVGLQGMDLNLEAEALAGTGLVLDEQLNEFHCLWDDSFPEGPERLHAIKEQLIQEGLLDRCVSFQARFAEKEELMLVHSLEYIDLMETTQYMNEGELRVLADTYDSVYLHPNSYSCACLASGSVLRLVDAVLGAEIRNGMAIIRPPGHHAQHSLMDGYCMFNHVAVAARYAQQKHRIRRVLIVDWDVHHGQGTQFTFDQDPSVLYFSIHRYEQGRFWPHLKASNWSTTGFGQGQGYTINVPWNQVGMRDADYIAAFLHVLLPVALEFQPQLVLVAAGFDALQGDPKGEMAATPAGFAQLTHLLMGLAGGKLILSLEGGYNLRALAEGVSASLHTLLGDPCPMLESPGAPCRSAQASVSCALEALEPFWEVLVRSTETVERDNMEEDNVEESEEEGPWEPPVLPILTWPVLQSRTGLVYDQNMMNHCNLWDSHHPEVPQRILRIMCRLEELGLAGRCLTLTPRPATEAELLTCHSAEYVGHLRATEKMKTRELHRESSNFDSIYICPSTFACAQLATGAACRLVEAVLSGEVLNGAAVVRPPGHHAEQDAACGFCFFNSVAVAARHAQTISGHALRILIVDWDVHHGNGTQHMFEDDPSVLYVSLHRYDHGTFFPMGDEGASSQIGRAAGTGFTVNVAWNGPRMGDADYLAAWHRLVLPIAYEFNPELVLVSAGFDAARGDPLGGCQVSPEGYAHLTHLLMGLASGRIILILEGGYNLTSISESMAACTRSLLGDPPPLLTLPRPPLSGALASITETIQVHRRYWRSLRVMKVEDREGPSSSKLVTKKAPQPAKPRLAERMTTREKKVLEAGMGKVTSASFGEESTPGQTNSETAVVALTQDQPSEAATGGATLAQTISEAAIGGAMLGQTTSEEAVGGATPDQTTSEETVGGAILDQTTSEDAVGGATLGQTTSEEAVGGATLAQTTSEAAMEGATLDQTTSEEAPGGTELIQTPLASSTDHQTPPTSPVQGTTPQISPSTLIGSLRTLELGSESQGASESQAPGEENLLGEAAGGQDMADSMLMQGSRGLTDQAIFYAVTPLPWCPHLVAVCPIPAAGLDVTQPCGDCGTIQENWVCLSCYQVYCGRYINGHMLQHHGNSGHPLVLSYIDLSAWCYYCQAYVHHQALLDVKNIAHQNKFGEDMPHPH
Experiment: HDAC enzyme activity test, HDAC6
Type: biochemical
Conditions: Table 12; ratio HDAC1 IC50 / HDAC6 IC50
assay.endpoint: Selectivity for HDAC6, HD1/HD6

> print(dat)
                                    molecule                  assay.endpoint     val
 1  O=C(NO)c1ccc(Cn2c3c(c4ccccc42)C(=O)CCC3)cc1 [Compound 99]  Selectivity for HDAC6, HD1/HD6   163.9
 2  Cc1nn(Cc2ccc(C(=O)NO)cc2)c2c1C(=O)CC(C)(C)C2 [Compound 101]  Selectivity for HDAC6, HD1/HD6   135.1
 3  CC1(C)CC(=O)c2c(n(CCCCCC(=O)NO)c3c(Cl)cc(Cl)cc23)C1 [Compound 47]  Selectivity for HDAC6, HD1/HD6     6.9
 4  CN1CCN(CC2CCc3c(c4cc(F)ccc4n3Cc3ccc(C(=O)NO)cc3)C2=O)CC1 (centres unmarked) [Compound 142]  Selectivity for HDAC6, HD1/HD6   568.3
 5  CN(C)CC1C(=O)c2c(n(Cc3ccc(C(=O)NO)cc3)c3ccccc23)CC1(C)C (centres unmarked) [Compound 129]  Selectivity for HDAC6, HD1/HD6   642.7
 6  CC1(C)CCc2c(c3ccccc3n2Cc2ccc(C(=O)NO)cc2)C1=O [Compound 131]  Selectivity for HDAC6, HD1/HD6   296.6
 7  CC(C)(C)OC(=O)N1CCN(CC2CCc3c(c4ccccc4n3Cc3ccc(C(=O)NO)cc3)C2=O)CC1 (centres unmarked) [Compound 140]  Selectivity for HDAC6, HD1/HD6   325.2
 8  Cc1c2c(n(CCCCCC(=O)NO)c1C)CCCC2=O [Compound 235]  Selectivity for HDAC6, HD1/HD6    34.9
 9  Cc1nccn1CC1C(=O)c2c(n(Cc3ccc(C(=O)NO)cc3)c3ccc(F)cc23)CC1(C)C (centres unmarked) [Compound 192]  Selectivity for HDAC6, HD1/HD6  2546.4
10  CC(C)(C)OC(=O)N1CCN(CC2CCc3c(c4cc(F)ccc4n3Cc3ccc(C(=O)NO)cc3)C2=O)CC1 (centres unmarked) [Compound 144]  Selectivity for HDAC6, HD1/HD6   310.9
11  CC1(C)CC(=O)c2c(n(Cc3ccc(C(=O)NO)cc3)c3ccc(Br)cc23)C1 [Compound 45]  Selectivity for HDAC6, HD1/HD6    42.1
12  CC1(C)CC(=O)c2c(C(F)(F)F)nn(Cc3ccc(C(=O)NO)cc3)c2C1 [Compound 237]  Selectivity for HDAC6, HD1/HD6   219.3
13  O=C(NO)c1ccc(Cn2c3c(c4ccccc42)C(=O)N(CCN2CCC[C@H]2CO)CC3)cc1 [Compound 267]  Selectivity for HDAC6, HD1/HD6   678.8
14  CCCCN1CCN(CC2CCc3c(c4cc(F)ccc4n3Cc3ccc(C(=O)NO)cc3)C2=O)CC1 (centres unmarked) [Compound 190]  Selectivity for HDAC6, HD1/HD6   385.1
15  O=C(CCCCCCn1c2c(c3cc(F)ccc31)C(=O)CCC2)NO [Compound 325]  Selectivity for HDAC6, HD1/HD6    31.3
16  O=C(NO)c1ccc(Cn2c3c(c4cc(F)ccc42)C(=O)CCC3)cc1 [Compound 157]  Selectivity for HDAC6, HD1/HD6   326.2
17  O=C(NO)c1ccc(Cn2c3c(c4ccccc42)C(=O)NCC3)cc1 [Compound 228]  Selectivity for HDAC6, HD1/HD6   208.3
18  O=C(CCCCCn1c2c(c3cc(F)ccc31)C(=O)C(CN1CCOCC1)CC2)NO (centres unmarked) [Compound 321]  Selectivity for HDAC6, HD1/HD6   121.8
19  CC1CN(CC2CCc3c(c4cc(F)ccc4n3CCCCCC(=O)NO)C2=O)CC(C)O1 (centres unmarked) [Compound 323]  Selectivity for HDAC6, HD1/HD6   102.2
20  CC1(C)CC(=O)C2c3c(F)cccc3N(CCCCCC(=O)NO)C2C1 (centres unmarked) [Compound 60]  Selectivity for HDAC6, HD1/HD6   127.4
21  Cc1cn(Cc2ccc(C(=O)NO)cc2)c2c1C(=O)N(CCN1CCOCC1)CC2 [Compound 250]  Selectivity for HDAC6, HD1/HD6    20.5
22  CC1(C)CC(=O)c2c(n(CCCCCC(=O)NO)c3c(Br)cccc23)C1 [Compound 46]  Selectivity for HDAC6, HD1/HD6     8.2
23  Cc1cc2c(n1CCCCCCC(=O)NO)CC(C)(C)CC2=O [Compound 347]  Selectivity for HDAC6, HD1/HD6    16.8
